# methodNotes: protein stability index of a GFP-peptide fusion (yeast GPS) (PSI 1-4); higher = more stable; sorted into four equal gates, so the index is relative within each strain
# measurementParameters: ubr1∆
assayMetric: protein stability index
Answer with the value's number alone.

INSERT INTO assay_data (entrysequence, value) VALUES
  ('EAIETCKNFEKTQLGST [GAL11]', 3.36),
  ('FKKSKIDHINEESWEKV [SCL1]', 2.69),
  ('RGFKVGLVCADTFRAGA [SRP54]', 2.23),
  ('ADVTHFVKPGTALDAEG [DIS3]', 3.08),
  ('LQKEFLPHITQLEGFES [RPB2]', 1.55),
  ('TAAEKKERLTKEAAAVA [RPL8A]', 2.89),
  ('GLSKEDDVRDFVIRREV [RPS6A]', 3.68),
  ('LPTNPTLDKPNAEATKE [CSE2]', 2.85),
  ('EGVEYLREYLNLPEHIV [RPS10A]', 3);

Please list protein stability index recorded for the sequence GGHSLEEISFSLSEGCD [PRP28] 2.25

From: the supplement of paper PMC9732359
